# Lookup of reported inhibition at 5 µM keyed by entry
target-desc: ROS (Homo sapiens)
Sequence (P08922 28-2347): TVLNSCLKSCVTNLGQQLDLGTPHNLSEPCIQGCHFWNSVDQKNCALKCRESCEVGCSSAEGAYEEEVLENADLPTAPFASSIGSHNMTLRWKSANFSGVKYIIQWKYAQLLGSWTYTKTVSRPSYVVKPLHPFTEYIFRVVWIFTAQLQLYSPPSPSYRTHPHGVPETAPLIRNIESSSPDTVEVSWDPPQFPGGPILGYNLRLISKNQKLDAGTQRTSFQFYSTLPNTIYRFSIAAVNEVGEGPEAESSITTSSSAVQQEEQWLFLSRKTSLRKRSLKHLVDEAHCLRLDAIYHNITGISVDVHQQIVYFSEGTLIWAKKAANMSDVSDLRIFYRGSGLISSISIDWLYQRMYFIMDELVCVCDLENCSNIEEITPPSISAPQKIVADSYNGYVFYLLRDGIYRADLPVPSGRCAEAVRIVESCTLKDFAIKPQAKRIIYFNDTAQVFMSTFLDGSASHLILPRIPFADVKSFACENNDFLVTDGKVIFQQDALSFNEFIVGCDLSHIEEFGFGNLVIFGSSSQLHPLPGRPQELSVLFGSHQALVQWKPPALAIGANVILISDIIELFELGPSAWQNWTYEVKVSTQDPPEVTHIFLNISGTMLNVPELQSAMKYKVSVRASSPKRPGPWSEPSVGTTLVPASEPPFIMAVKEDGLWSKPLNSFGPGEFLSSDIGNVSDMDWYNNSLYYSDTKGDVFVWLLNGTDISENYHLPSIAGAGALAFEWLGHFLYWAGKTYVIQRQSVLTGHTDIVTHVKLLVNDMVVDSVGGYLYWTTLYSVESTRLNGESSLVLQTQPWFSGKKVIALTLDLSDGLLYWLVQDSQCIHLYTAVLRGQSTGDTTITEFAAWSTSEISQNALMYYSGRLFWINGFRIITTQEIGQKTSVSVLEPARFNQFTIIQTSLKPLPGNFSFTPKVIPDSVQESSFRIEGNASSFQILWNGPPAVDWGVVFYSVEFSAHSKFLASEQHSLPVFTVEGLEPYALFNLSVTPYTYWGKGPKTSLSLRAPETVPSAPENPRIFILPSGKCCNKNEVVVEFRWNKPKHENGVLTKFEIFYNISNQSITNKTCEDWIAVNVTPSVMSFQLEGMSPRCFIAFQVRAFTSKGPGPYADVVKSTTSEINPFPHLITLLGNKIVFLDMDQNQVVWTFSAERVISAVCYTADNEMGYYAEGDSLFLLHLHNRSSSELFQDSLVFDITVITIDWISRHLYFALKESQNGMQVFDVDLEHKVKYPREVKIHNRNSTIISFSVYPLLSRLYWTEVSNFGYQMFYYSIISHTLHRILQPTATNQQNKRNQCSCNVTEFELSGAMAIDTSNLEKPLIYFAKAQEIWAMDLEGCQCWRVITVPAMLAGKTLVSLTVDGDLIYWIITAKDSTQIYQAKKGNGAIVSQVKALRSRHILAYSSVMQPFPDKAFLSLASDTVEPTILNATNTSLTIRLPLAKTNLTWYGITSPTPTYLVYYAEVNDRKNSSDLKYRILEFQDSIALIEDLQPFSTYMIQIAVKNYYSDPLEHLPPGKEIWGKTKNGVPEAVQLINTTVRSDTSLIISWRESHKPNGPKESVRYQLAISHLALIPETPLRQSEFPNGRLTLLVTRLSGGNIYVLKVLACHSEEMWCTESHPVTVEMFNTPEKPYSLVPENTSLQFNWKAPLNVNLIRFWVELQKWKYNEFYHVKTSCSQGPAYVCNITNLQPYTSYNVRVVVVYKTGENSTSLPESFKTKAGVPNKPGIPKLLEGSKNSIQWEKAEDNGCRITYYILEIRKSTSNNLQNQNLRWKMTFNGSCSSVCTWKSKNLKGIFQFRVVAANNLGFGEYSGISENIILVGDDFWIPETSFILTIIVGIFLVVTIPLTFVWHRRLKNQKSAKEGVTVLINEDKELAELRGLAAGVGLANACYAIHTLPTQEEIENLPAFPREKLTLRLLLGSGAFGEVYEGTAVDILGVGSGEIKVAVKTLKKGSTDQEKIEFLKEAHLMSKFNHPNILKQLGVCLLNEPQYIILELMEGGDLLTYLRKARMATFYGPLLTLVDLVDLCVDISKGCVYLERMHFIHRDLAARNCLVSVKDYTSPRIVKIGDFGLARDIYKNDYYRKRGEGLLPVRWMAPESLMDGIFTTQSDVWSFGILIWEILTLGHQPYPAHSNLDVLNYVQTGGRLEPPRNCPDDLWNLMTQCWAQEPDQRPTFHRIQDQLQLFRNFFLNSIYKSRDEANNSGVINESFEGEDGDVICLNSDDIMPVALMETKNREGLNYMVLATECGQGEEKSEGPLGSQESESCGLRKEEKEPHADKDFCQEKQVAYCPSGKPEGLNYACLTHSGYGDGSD
protocol: In vitro ROS enzymatic reaction assay (HTRF, Cisbio)
Format: biochemical
Parameters: ROS or EGFR enzyme, 0.008 ng/ul
run-conditions: ROS kinase, compound at 5 uM; read-out: Kinase Inhib. 5 uM (%)

compound	inhibition at 5 µM, %
NC1CCN(C(=O)c2cccc(Nc3ncc(Cl)c(Nc4ccc5ncsc5c4)n3)c2)CC1 [drawing 332]	100
O=C(NCCN1CCOCC1)c1cccc(Nc2nccc(Nc3ccc4ncsc4c3)n2)c1 [drawing 274]	101
O=C(NCC(c1cccs1)S(=O)(=O)c1ccc(F)cc1)c1ccccc1 (centres unmarked) [drawing 297]	85.1
CC(C)CN(CC(C)C)C(=O)c1cccc(Nc2nccc(Nc3ccc4ncsc4c3)n2)c1 [drawing 287]	99.6
CN(C)CC(C)(C)CNC(=O)c1cccc(Nc2nccc(Nc3ccc4ncsc4c3)n2)c1 [drawing 276]	101
O=C(c1cccc(Nc2nccc(Nc3ccc4ncsc4c3)n2)c1)N1CCCCC1 [drawing 301]	100
COc1ccc(C2=CCNCC2)cc1Nc1nccc(Nc2ccc3ncsc3c2)n1 [drawing 330]	100
CC(C)c1nc(Nc2ccc(C(=O)N3CCCCC3)cc2)nc(Nc2ccc3ncsc3c2)n1 [drawing 318]	58.6

Values from patent US9963452B2
